Where these numbers come from: PubChem BioAssay AID504444

# ASSAY COMMENT: Nrf2 qHTS screen for inhibitors; further: nearly all actives have a fitted effect of over 60% in size
# APPLIED CONDITIONS: A549 ARE-Fluc reporter, luciferase luminescence, 18-24 h; series mostly up to 46 µM
Screen size: about 360,000 compounds; about 7,500 (2.1%) were called active. Another 20% or so got no clear call; they are omitted. The call rests on the fitted dose curve; in most records, active means well fitted inhibition curve with a large enough effect; inconclusive means small, poorly fitted or top-dose-only effect, or effect the other way; inactive means flat fitted curve, though single readings scatter. The list comes from a sample in which actives are over-represented; it also holds close analogues and randomly drawn compounds.
Your answer must be one of the following: Yes for active, No for inactive

Q: Just curious, what result did Cc1ccc(-c2ccc(=O)n(Cc3ccc(F)cc3Cl)n2)cc1 get here?
A: No

Q: Just curious, what result did COc1ccc(N(C)S(=O)(=O)c2cccc3nsnc23)cc1 get here?
A: No

Q: Just curious, what result did O=C1c2ccccc2C(=O)N1c1ccc(S(=O)(=O)N2CCOCC2)c2ccccc12 get here?
A: No

Q: Just curious, what result did Cc1cc(OCC(=O)Nc2ncn[nH]2)c(C)c(C)c1Br get here?
A: No

Q: Just curious, what result did COc1cccc(/C=N/Nc2ccc(S(=O)(=O)Nc3ccccc3C(=O)O)cc2[N+](=O)[O-])c1O get here?
A: No

Q: Just curious, what result did CCN(CCCNC(=O)CSc1cc(=O)n(C)c2cc(Cl)ccc12)c1cccc(C)c1 get here?
A: No

Q: Just curious, what result did COc1ccc(N(C)C(=O)C2CCN(S(=O)(=O)c3cccc4nsnc34)CC2)cc1 get here?
A: Yes

Q: Just curious, what result did Cc1ccc(C)c(S(=O)(=O)N(C)c2ccc(OC(=O)C3CCN(C(=O)c4ccc(F)cc4)CC3)cc2)c1 get here?
A: No

Q: Just curious, what result did COc1ccc(C(=O)NCC(=O)N/N=C/c2ccc([N+](=O)[O-])s2)cc1OC get here?
A: Yes

Q: Just curious, what result did CCOc1ccc(NC(=O)CSc2nnc3c(n2)[nH]c2ccc(S(=O)(=O)N4CCOCC4)cc23)cc1 get here?
A: No

Q: Just curious, what result did Cc1cc2c(cc1C)NC1(C[C@H]3CCC(=O)N4CC[C@@H](C1)[C@@H]34)C(=NC(C)(C)CC(C)(C)C)N2 (stereo not given in full) get here?
A: No

Q: Just curious, what result did CCOC(=O)N1CCC(NC(=O)c2cnn(-c3cccc(C)c3)c2C2CCN(C(=O)OC(C)(C)C)CC2)CC1 get here?
A: No

Q: Just curious, what result did Cc1cc(C(=O)N/N=C/c2cc([N+](=O)[O-])cc(C)c2O)n[nH]1 get here?
A: No

Q: Just curious, what result did CCN(CC)CCNC(=O)Cn1ncc2c3ccccc3n(Cc3ccccc3C)c2c1=O get here?
A: No

Q: Just curious, what result did COc1ccc2ccccc2c1/C=N/NC(=O)c1cc(C)[nH]n1 get here?
A: No

Q: Just curious, what result did NCCCNC(=S)NCCCN(Cc1ccc(Cl)cc1)c1ccc(Br)cn1 get here?
A: No

Q: Just curious, what result did Cc1ccc(C)c(N2CCN(C(c3ccccc3)c3nnc(-c4ccccc4)o3)CC2)c1 (stereo not given) get here?
A: No

Q: Just curious, what result did COc1ccc(-c2cc(NCc3ccc(F)cc3)n3cnnc3n2)cc1 get here?
A: No

Q: Just curious, what result did O=c1n(Cc2cccc(C(F)(F)F)c2)c2ccccc2c2nc(-c3ccccc3)nn12 get here?
A: No

Q: Just curious, what result did O=C(Nc1ccc(OC(F)(F)F)cc1)C1CCCN(S(=O)(=O)c2ccc(Br)s2)C1 (stereo not given) get here?
A: No
